Listed next: entries and their corresponding RBA.
# study_target: Estrogen receptor (Homo sapiens)
# Sequence (whole entry): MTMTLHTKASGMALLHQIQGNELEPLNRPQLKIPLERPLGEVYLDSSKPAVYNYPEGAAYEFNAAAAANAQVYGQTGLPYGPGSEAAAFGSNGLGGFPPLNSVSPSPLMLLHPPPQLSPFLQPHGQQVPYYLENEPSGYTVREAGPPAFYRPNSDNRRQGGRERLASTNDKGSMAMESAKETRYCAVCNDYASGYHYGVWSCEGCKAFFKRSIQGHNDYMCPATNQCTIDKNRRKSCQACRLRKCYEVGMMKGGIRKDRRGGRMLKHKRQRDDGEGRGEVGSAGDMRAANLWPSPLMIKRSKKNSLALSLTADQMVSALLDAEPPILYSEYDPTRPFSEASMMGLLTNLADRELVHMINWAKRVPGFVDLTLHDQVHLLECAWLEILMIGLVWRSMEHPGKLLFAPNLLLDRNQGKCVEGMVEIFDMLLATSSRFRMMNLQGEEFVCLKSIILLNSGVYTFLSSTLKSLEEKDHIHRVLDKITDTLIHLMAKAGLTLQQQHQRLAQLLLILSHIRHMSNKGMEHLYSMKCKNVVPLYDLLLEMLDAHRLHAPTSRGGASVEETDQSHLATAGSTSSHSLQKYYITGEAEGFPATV
# assay_method_text: Binding affinity to human ERalpha assessed as relative binding affinity incubated under vibration for 1 min followed by 2 hrs incubation under dark condition by fluorescence polarization assay relative to estradiol
# condition_set: time 121.0 min
measured_quantity: RBA (%)

1. COc1ccc(N(CC(F)(F)F)S(=O)(=O)C2CC3OC2C(c2ccc(NC(=O)CCCCC[Se]C#N)cc2)=C3c2ccc(O)cc2)cc1 (configuration not stated): 2.31
2. CCN(c1cccc(F)c1)S(=O)(=O)C1CC2OC1C(c1ccc(NC(=O)CCCCC[Se]C#N)cc1)=C2c1ccc(O)cc1 (configuration not stated): 0.79
3. CCN(c1ccc(F)cc1)S(=O)(=O)C1CC2OC1C(c1ccc(NC(=O)CCCCC[Se]C#N)cc1)=C2c1ccc(O)cc1 (configuration not stated): 11.2
4. COc1cccc(OS(=O)(=O)C2CC3OC2C(c2ccc(NC(=O)CCCCC[Se]C#N)cc2)=C3c2ccc(O)cc2)c1 (configuration not stated): 12.1
5. N#C[Se]CCCCCC(=O)Nc1ccc(C2=C(c3ccc(O)cc3)C3CC(S(=O)(=O)Oc4cccc5ccccc45)C2O3)cc1 (configuration not stated): 15.5
6. N#C[Se]CCCCCC(=O)Nc1ccc(C2=C(c3ccc(O)cc3)C3CC(S(=O)(=O)Oc4ccc(Br)cc4)C2O3)cc1 (configuration not stated): 0.31
7. COc1ccc(N(CC(F)(F)F)S(=O)(=O)C2CC3OC2C(c2ccc(NC(=O)CCCCCCC[Se]C#N)cc2)=C3c2ccc(O)cc2)cc1 (configuration not stated): 0.76

====

# assay_method_text: Selectivity index, ratio of IC50 for cytotoxicity against human MCF-10A cells to IC50 for antiproliferative activity against human MCF7 cells
# Type: toxicity, cell-based
# condition_set: MCF-10A cells and MCF7 cells, read-out: Ratio IC50
Listed next: entries and their corresponding selectivity ratio.
measured_quantity: selectivity ratio

1) COc1ccc(OS(=O)(=O)C2CC3OC2C(c2ccc(NC(=O)CCCCC[Se]C#N)cc2)=C3c2ccc(O)cc2)cc1 (stereo not given): 4.99
2) N#C[Se]CCCCCC(=O)Nc1ccc(C2=C(c3ccc(O)cc3)C3CC(S(=O)(=O)Oc4ccccc4F)C2O3)cc1 (stereo not given): 63
3) N#C[Se]CCCCCC(=O)Nc1ccc(C2=C(c3ccc(O)cc3)C3CC(S(=O)(=O)Oc4cccc(F)c4)C2O3)cc1 (stereo not given): 22.4
4) N#C[Se]CCCCCCCC(=O)Nc1ccc(C2=C(c3ccc(O)cc3)C3CC(S(=O)(=O)Oc4ccccc4)C2O3)cc1 (stereo not given): 12
5) N#C[Se]CCCCCC(=O)Nc1ccc(C2=C(c3ccc(O)cc3)C3CC(S(=O)(=O)Oc4ccc5ccccc5c4)C2O3)cc1 (stereo not given): 7.52
6) Cc1cccc(OS(=O)(=O)C2CC3OC2C(c2ccc(NC(=O)CCCCC[Se]C#N)cc2)=C3c2ccc(O)cc2)c1 (stereo not given): 42.5
7) N#C[Se]CCCCCC(=O)Nc1ccc(C2=C(c3ccc(O)cc3)C3CC(S(=O)(=O)Oc4cccc(C(F)(F)F)c4)C2O3)cc1 (stereo not given): 94.1
8) COc1ccc(N(CC(F)(F)F)S(=O)(=O)C2CC3OC2C(c2ccc(O)cc2)=C3c2ccc(O)cc2)cc1 (stereo not given): 88.6
9) N#C[Se]CCCCCC(=O)Nc1ccc(C2=C(c3ccc(O)cc3)C3CC(S(=O)(=O)N(CC(F)(F)F)c4ccccc4F)C2O3)cc1 (stereo not given): 264
10) N#C[Se]CCCCCC(=O)Nc1ccc(C2=C(c3ccc(O)cc3)C3CC(S(=O)(=O)Oc4ccc(C(F)(F)F)cc4)C2O3)cc1 (stereo not given): 5.72
11) CCN(c1ccc(F)cc1)S(=O)(=O)C1CC2OC1C(c1ccc(NC(=O)CCCCC[Se]C#N)cc1)=C2c1ccc(O)cc1 (stereo not given): 72.2
12) CCN(c1ccc(Cl)cc1)S(=O)(=O)C1CC2OC1C(c1ccc(NC(=O)CCCCC[Se]C#N)cc1)=C2c1ccc(O)cc1 (stereo not given): 66.3
13) COc1ccc(N(CC(F)(F)F)S(=O)(=O)C2CC3OC2C(c2ccc(NC(=O)CCCCCCC[Se]C#N)cc2)=C3c2ccc(O)cc2)cc1 (stereo not given): 86.8
14) N#C[Se]CC(=O)Nc1ccc(C2=C(c3ccc(O)cc3)C3CC(S(=O)(=O)Oc4ccccc4)C2O3)cc1 (stereo not given): 14

Origin of the recorded values: ChEMBL document CHEMBL5360672
